Reported relative viability by item:
Tested on: NCI-H1944
assay.details: relative viability (nuclei count vs DMSO), 5 days (fraction); higher = more cells survive
condition: first compound 0.01 µM
A bare number is all that is needed in reply.

[
  {
    "compound": "CC(C)Oc1cc(Nc2nc(N[C@@H](C)c3ccc(F)cn3)ncc2Cl)n[nH]1 [AZ23] + C[C@]1(O)C[C@@H](c2nc(-c3ccc4ccc(-c5ccccc5)nc4c3)c3c(N)nccn32)C1 [Linsitinib] (partner 1 µM)",
    "reported.value": 1.12
  },
  {
    "compound": "CC(C)Oc1cc(Nc2nc(N[C@@H](C)c3ccc(F)cn3)ncc2Cl)n[nH]1 [AZ23] + O=C(c1cc(Cc2n[nH]c(=O)c3ccccc23)ccc1F)N1CCN(C(=O)C2CC2)CC1 [Olaparib] (partner 8 µM)",
    "reported.value": 0.443
  }
]

Q) Identify the reported relative viability for the following entry. CC(C)Oc1cc(Nc2nc(N[C@@H](C)c3ccc(F)cn3)ncc2Cl)n[nH]1 [AZ23] + CS(=O)(=O)CCNCc1ccc(-c2ccc3ncnc(Nc4ccc(OCc5cccc(F)c5)c(Cl)c4)c3c2)o1 [Lapatinib] (partner 2 µM)
A) 0.789

###

Tested on: HCC-44
assay.details: relative viability (nuclei count vs DMSO), 5 days (fraction); higher = more cells survive
condition: first compound 0.08 µM
Reported relative viability by item:
A bare number is all that is needed in reply.

[
  {
    "compound": "CCCCCCCCCCCC1=C(O)C(=O)C=C(O)C1=O [Embelin] + CS(=O)(=O)CCNCc1ccc(-c2ccc3ncnc(Nc4ccc(OCc5cccc(F)c5)c(Cl)c4)c3c2)o1 [Lapatinib] (partner 2 µM)",
    "measure.name": "relative viability",
    "reported.value": 1.03
  },
  {
    "compound": "CCCCCCCCCCCC1=C(O)C(=O)C=C(O)C1=O [Embelin] + N=C(N)NC(=N)NCCc1ccccc1 [Phenformin] (partner 250 µM)",
    "measure.name": "relative viability",
    "reported.value": 0.175
  },
  {
    "compound": "CCCCCCCCCCCC1=C(O)C(=O)C=C(O)C1=O [Embelin] + NC(=O)Nc1cc(-c2cccc(F)c2)sc1C(=O)N[C@H]1CCCNC1 [AZD7762] (partner 0.2 µM)",
    "measure.name": "relative viability",
    "reported.value": 1.07
  }
]

Q) Identify the reported relative viability for the following entry. CCCCCCCCCCCC1=C(O)C(=O)C=C(O)C1=O [Embelin] + Nc1ncn([C@H]2C[C@H](O)[C@@H](CO)O2)c(=O)n1 [Decitabine] (partner 2 µM)
A) 0.981

Q) Identify the reported relative viability for the following entry. CCCCCCCCCCCC1=C(O)C(=O)C=C(O)C1=O [Embelin] + COc1cccc2cc(-c3nc([C@H]4CC[C@H](C(=O)O)CC4)n4ncnc(N)c34)[nH]c12 [OSI-027] (partner 0.5 µM)
A) 0.481

Q) Identify the reported relative viability for the following entry. CCCCCCCCCCCC1=C(O)C(=O)C=C(O)C1=O [Embelin] + O=C(c1cc(Cc2n[nH]c(=O)c3ccccc23)ccc1F)N1CCN(C(=O)C2CC2)CC1 [Olaparib] (partner 8 µM)
A) 0.989

###

System: IA-LM
assay.details: relative viability (nuclei count vs DMSO), 5 days (fraction); higher = more cells survive
condition: first compound 0.4 µM
Reported relative viability by item:
A bare number is all that is needed in reply.

Would you please look over these solved cases?
[
  {
    "molecule": "Clc1ccc(Nc2nnc(Cc3ccncc3)c3ccccc23)cc1 [Vatalanib] + C[C@]1(O)C[C@@H](c2nc(-c3ccc4ccc(-c5ccccc5)nc4c3)c3c(N)nccn32)C1 [Linsitinib] (partner 1 µM)",
    "measure.name": "relative viability",
    "reported.value": 0.69
  },
  {
    "molecule": "Clc1ccc(Nc2nnc(Cc3ccncc3)c3ccccc23)cc1 [Vatalanib] + Cc1nc(NC(=O)N2CCC[C@H]2C(N)=O)sc1-c1ccnc(C(C)(C)C(F)(F)F)c1 [Alpelisib] (partner 2 µM)",
    "measure.name": "relative viability",
    "reported.value": 0.715
  },
  {
    "molecule": "COc1cc(N2CCC(C(N)=O)CC2)ccc1Nc1nc(N)c(Cl)c(Nc2ccccc2S(=O)(=O)C(C)C)n1 [HG-5-88-01] + CC(C)C[C@H](NC(=O)[C@H](Cc1ccccc1)NC(=O)c1cnccn1)B(O)O [Bortezomib] (partner 0.002 µM)",
    "measure.name": "relative viability",
    "reported.value": 0.724
  }
]

Q) Identify the reported relative viability for the following entry. C[C@@H]1CN(CC(=O)Nc2ccc3c(c2)Cc2cccc(-c4cc(=O)cc(N5CCOCC5)o4)c2S3)C[C@H](C)O1 + COc1cc2c(Oc3ccc(NC(=O)C4(C(=O)Nc5ccc(F)cc5)CC4)cc3F)ccnc2cc1OCCCN1CCOCC1 [Foretinib] (partner 0.25 µM)
A) 1.27

Q) Identify the reported relative viability for the following entry. Clc1ccc(Nc2nnc(Cc3ccncc3)c3ccccc23)cc1 [Vatalanib] + C[C@@H](Oc1cc(-c2cnn(C3CCNCC3)c2)cnc1N)c1c(Cl)ccc(F)c1Cl [Crizotinib] (partner 1 µM)
A) 0.724

Q) Identify the reported relative viability for the following entry. C[C@@H]1CN(CC(=O)Nc2ccc3c(c2)Cc2cccc(-c4cc(=O)cc(N5CCOCC5)o4)c2S3)C[C@H](C)O1 + Cc1nc(NC(=O)N2CCC[C@H]2C(N)=O)sc1-c1ccnc(C(C)(C)C(F)(F)F)c1 [Alpelisib] (partner 2 µM)
A) 0.895

Q) Identify the reported relative viability for the following entry. COc1cc(N2CCC(C(N)=O)CC2)ccc1Nc1nc(N)c(Cl)c(Nc2ccccc2S(=O)(=O)C(C)C)n1 [HG-5-88-01] + CC1(C)CCC(c2ccc(Cl)cc2)=C(CN2CCN(c3ccc(C(=O)NS(=O)(=O)c4ccc(N[C@H](CCN5CCOCC5)CSc5ccccc5)c(S(=O)(=O)C(F)(F)F)c4)cc3)CC2)C1 [Navitoclax] (partner 0.5 µM)
A) 0.731

Q) Identify the reported relative viability for the following entry. COc1cc(N2CCC(C(N)=O)CC2)ccc1Nc1nc(N)c(Cl)c(Nc2ccccc2S(=O)(=O)C(C)C)n1 [HG-5-88-01] + CS(=O)(=O)N1CCN(Cc2cc3nc(-c4cccc5[nH]ncc45)nc(N4CCOCC4)c3s2)CC1 [Pictilisib] (partner 1 µM)
A) 0.244

Where these numbers come from: the supplement of paper PMC10307832
